studyTarget: T1, biotinylated GITR (human, UniProt Q9Y5U5 26-161, limits assumed, biotinylated (sites not given))
T1 construct: also called GITR-bio; Biotin-GITR
T1 sequence: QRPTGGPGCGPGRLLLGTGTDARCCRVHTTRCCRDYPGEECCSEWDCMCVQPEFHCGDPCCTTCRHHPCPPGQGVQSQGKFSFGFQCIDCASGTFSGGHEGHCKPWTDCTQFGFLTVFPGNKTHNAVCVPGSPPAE
protocolNotes: BLI (Octet), biotin-GITR on streptavidin tips, antibody supernatant
The reader will find reported koff values listed item by item below.
metric: koff (s⁻¹)

>>> valueobserved("germline variant antibody 107 (H1917H09 / K1917H09) (antibody, V domains shown, IGHG1/IGKC expression vectors; measured from CHO culture supernatant) VH: QVQLVQSGAEVKKPGASVKVSCKGSGYTFTGYAMYWVRQAPGQGLEWMGVIRTYSGDVSYNQKFRDRVTMTVDTSISTAYMELSRLRSDDTAVYYCAKSGTVRGFAYWGQGTLVTVSS VL: DIVMTQSPDSLAVSLGERATINCKSSQSLLNSGNQKNYLSWYHQKPGQPPKLLIYWASTRESGVPDRFTGSGSGTDFTLTISSVQAEDVAVYYCQNDYSYPYTFGQGTKLEIK")
0.000657
>>> valueobserved("germline variant antibody 95 (H1917G05 / K1917G05) (antibody, V domains shown, IGHG1/IGKC expression vectors; measured from CHO culture supernatant; also called Antibody ID 95) VH: QVQLVQSGAEVKKPGASVKVSCKGSGYTFTDYAMYWVRQAPGQGLEWMGLIRTYSGGVSYNQKFRGRVTMTVDTSISTAYMELSRLRSDDTAVYYCAKSGTVRGFAYWGQGTFVTVSS VL: DIVMTQSPDSLAVSLGERATINCKSSQSLLNSGNQKNYLTWYQQKPGQPPKMLIYWASTRESGVPDRFSGSGSGTDFTLTISSVQAEDVAVYHCQNDYSFPYTFGQGTKLEIK")
0.000672
>>> valueobserved("germline variant antibody 46 (H1916E06 / K1916E06) (antibody, V domains shown, IGHG1/IGKC expression vectors; measured from CHO culture supernatant; also called Antibody ID 46) VH: QVQLVQSGAEVKKPGASVKVSCKASGYTFTEYAMYWVRQAPGQGLEWMGLIRTFSGDLSYNQKFRGRVTMTVDTSISTAYMELSRLRSDDTAVYYCAKSGTVRGFAYWGQGTLVTVSS VL: DIVMTQSPDSLAVSLGERATINCKSSQSLLNSGNQKNYLSWYHQKPGQPPKLLIYWASTRESGVPDRFTGSGSGTDFTLTISSLQAEDVAVYHCQNDYSYPYTFGQGTKLEIK")
0.000248
>>> valueobserved("germline variant antibody 94 (H1917G01 / K1917G01) (antibody, V domains shown, IGHG1/IGKC expression vectors; measured from CHO culture supernatant; also called Antibody ID 94) VH: QVQLVQSGTEVKKPGASVKVSCKGSGYTFTGYAMYWVRQAPGQGLEWIGVIRTFSGGVTYNQKFRDRVTMTVDKSISTAYMELSRLRSDDTAVYYCAKSGTVRGFAYWGQGTFVTVSS VL: DIVMTQSPDSLAVSLGERATINCKSSQSLLNSGNQKNYLTWYQQKPGQPPKLLIYWASTRESGVPDRFTGSGSGTDFTLTISSVQAEDVAVYHCQNDYSYPYTFGQGTKLEIK")
0.00044
>>> valueobserved("germline variant antibody 75 (H1917C09 / K1917C09) (antibody, V domains shown, IGHG1/IGKC expression vectors; measured from CHO culture supernatant; also called Antibody ID 75) VH: QVQLVQSGTEVKKPGASVKVSCKGSGYTFTGYAMYWVRQAPGQGLEWIGVIRTYSGGVTYNQKFQGRVTMTVDKSISTAYMELSRLRSDDTAVYYCAKSGTVRGFAYWGQGTLVTVSS VL: DIVMTQSPDSLAVSLGERATINCKSSQSLLNSGNQKNYLSWYHQKPGQPPKLLIYWASTRESGVPDRFTGSGSGTDFTLTISSLQAEDVAVYYCQNDYSYPYTFGQGTKLEIK")
0.000925

// data source = patent US20210070872A1
